Molecular target: KDM4C (Homo sapiens)
Construct: Full length
Sequence (Q9H3R0 1-1056): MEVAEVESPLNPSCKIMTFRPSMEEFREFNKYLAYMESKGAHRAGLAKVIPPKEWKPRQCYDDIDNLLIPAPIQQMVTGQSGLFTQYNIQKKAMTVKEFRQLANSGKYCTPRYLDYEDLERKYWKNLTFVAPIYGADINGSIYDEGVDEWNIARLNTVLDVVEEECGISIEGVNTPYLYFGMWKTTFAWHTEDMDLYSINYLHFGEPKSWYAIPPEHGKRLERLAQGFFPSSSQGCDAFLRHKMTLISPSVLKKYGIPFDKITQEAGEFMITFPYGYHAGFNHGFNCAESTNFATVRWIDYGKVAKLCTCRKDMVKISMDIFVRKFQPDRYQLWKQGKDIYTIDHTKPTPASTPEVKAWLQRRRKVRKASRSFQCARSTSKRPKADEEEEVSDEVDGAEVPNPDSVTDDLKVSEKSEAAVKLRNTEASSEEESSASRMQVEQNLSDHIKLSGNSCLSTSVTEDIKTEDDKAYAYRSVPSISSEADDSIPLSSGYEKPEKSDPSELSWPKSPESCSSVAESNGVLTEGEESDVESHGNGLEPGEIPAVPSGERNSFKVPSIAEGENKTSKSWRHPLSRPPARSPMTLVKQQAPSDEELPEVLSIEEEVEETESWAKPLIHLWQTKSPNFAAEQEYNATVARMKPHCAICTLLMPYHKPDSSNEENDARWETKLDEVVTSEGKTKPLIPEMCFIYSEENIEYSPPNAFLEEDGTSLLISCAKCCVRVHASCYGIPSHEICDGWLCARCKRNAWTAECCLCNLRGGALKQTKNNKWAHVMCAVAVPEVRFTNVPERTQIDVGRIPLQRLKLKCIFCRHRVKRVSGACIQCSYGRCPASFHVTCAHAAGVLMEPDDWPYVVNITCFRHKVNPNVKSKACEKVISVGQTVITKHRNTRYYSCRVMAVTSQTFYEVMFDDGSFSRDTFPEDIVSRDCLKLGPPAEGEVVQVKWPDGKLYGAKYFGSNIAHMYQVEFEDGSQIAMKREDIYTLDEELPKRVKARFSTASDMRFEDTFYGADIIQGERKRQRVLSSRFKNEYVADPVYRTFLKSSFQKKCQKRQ
Test: Histone lysine demethylase immunofluorescence assay, U2OS cells transfected with KDM4C
Conditions: U2OS cells transfected with pCMVHA KDM4C; mark detected H3K9me3; 20 hours
QUANTITY_MEASURED: IC50

Q: Given the entry CN(C)CCCCCNCc1cc(/C=N/C2CC2)ccn1 , what IC50 was observed with KDM4C (Homo sapiens)?
Result: 250 to 2500 nM

Q: Test system KDM4C (Homo sapiens); read-out IC50; what value for CN(C)CCNCc1ccnc(CNCC(=O)N(C)C)c1 ?
Result: > 2500 nM

Q: Hi! What's the reported IC50 for CN(C)CCCNCc1cc(CN)ccn1 on KDM4C (Homo sapiens)?
Result: > 2500 nM

Q: Notebook entry, KDM4C (Homo sapiens) assay: IC50 of COC(=O)CNCc1cc(/C=N/C2CC2)ccn1 = ?
Result: > 2500 nM

Q: Record CN(C)CCNCc1cc(C=O)ccn1 : what is its IC50 with KDM4C (Homo sapiens)?
Result: > 2500 nM

Q: Lab note: need IC50 with KDM4C (Homo sapiens) for entry OCC/N=C/c1ccnc(CNCCc2ccccc2OCc2ccccc2)c1 , please look it up.
Result: > 2500 nM

Q: // map O=Cc1ccnc(CNCC(=O)N2CCC[C@@H]2CN2CCCC2)c1 to recorded IC50 (system: KDM4C (Homo sapiens))
Result: 250 to 2500 nM

Q: Notebook: pull reported IC50 for KDM4C (Homo sapiens), entry CCN(CCC#N)C(=O)CNCc1cc(/C=N/C2CC2)ccn1
Result: > 2500 nM
